Exercise: state measured Neutralization IC50, plaque-reduction assay for each of the binders provided.
# Assayed system: F protein of RSV strain Long (infectious virus) (human respiratory syncytial virus …, UniProt P12568 26-574)
# Sequence (P12568 26-574): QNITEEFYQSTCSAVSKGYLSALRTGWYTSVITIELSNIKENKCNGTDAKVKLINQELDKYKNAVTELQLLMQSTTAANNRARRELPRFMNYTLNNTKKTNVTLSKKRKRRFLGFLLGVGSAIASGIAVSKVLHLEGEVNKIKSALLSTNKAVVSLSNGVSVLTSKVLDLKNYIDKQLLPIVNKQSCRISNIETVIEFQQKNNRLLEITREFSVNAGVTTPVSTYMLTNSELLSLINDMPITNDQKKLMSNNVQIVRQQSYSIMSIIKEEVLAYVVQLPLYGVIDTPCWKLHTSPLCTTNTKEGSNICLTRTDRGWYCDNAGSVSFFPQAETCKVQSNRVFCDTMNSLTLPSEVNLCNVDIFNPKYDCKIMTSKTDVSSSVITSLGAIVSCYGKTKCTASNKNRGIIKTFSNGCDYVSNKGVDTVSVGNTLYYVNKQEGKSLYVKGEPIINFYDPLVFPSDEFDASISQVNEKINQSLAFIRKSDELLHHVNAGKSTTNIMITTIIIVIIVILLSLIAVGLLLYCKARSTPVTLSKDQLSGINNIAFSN
# Experimental protocol: cell-based or functional assay
Give bare numbers, in µg/mL.

Binder	Assay result
hRSV7 (antibody, V domains shown) VH: EVQLVESGGGLVQPGGSLRLSCAASGFTFRNYAMSWVRQAPGKGLEWVSDISSGGDTTYYAESLKGRITISRDNSKNTLYLQMNSLRAEDAAIYFCAKHLLSPMYVNTDVFPDWYFEIWGRGTLVTVSS VL: SYELTQPPSVSVSPGQTARITCSGDGLPKKYAYWYQQKSGQAPVLVIYDDSKRPSGIPERFSGTSSGTMATLIISGAQVEDEADYYCYSRHNSAYQRVFGAGTQLTVL	0.062

Next up:
Could you tell me which Neutralization IC50, plaque-reduction assay is on file for hRSV12 (antibody, V domains shown) VH: QVQLVQSGAEVKKPGTSVRVSCKTSGYNFMNYGIYWVRQAPGQGLEWVGWISAYNGQTDRAQKFQGRVTMTTDISTNTGYMDLRSLRSDDTAVYFCARGPPVIAAVSLEYWGRGTLVTVSS VL: EVVMTQSPLSLPVTLGQPASISCKSSQSLVHSNGDTYLNWFQQRPGQSPRRLIYKVSNRDSGVPDRFSGSGSGTDFTLKISRVETEDVGVYYCMQATHWPGSFGQGTKLEIK ?
0.016
